protocol.notes: Total clearance in rat at 0.5 mg/kg, iv or 1 mg/kg, po
Format: ADME, organism-based
condition.info: in vivo

| compound | unit.symbol | clearance |
| --- | --- | --- |
| Cc1ccc(-c2c(C)nc(NC(=O)NC3CCCCC3)c(C)c2C(OC(C)(C)C)C(=O)O)cc1C (stereo unspecified) | mL/min/kg | 12.5 |
